Where do the numbers come from? From paper PMC3138877.

Test system: HCC78 cells (SLC34A2-ROS fusion)
assay_name: Cell Titer Blue viability, HCC78
Type: cell-based, human
conditions: Homo sapiens, HCC78, 72 h, read-out: IC50 HCC78, 72h, Cell titer blue
quantity: IC50
Could you write the number and then its unit?

stdin: Which IC50 is reported for this compound? C[C@@H](Oc1cc(-c2cnn(C3CCNCC3)c2)cnc1N)c1c(Cl)ccc(F)c1Cl [PF-1066, crizotinib, reference compound]
stdout: 1400 nM

====

# pIC50 per entry for MET (Homo sapiens)
Hey, just a heads up that pIC50 is the negative log base 10 of the concentration in molar.

> print(dat)
                              line.notation  quantity  measured.result
1  C[C@@H]1CN(C(=O)c2ccc(NC(=O)c3cc(O[C@H](C)c4c(Cl)ccc(F)c4Cl)c(N)nn3)cc2)C[C@H](C)N1     pIC50             9.13

Here is the next item to consider.
stdin: // lookup pIC50 for C[C@@H](Oc1cc(C(=O)Nc2ccc(C(=O)N3CCN(C)CC3)cc2)nnc1N)c1c(Cl)ccc(F)c1Cl
stdout: 9.16

====

System: HepG2 hepatocellular carcinoma cells
assay_name: Cell Titer Blue viability, HepG2
Assay type: cell-based, human
conditions: read-out: IC50 HepG2; 72h, Cell titer blue
quantity: IC50 (µM)
# output: bare number, implied unit µM

> print(dat)
                              line.notation                       subject.of.test  measurement.units  measured.result
1  C[C@@H]1CN(C(=O)c2ccc(NC(=O)c3cc(O[C@H](C)c4c(Cl)ccc(F)c4Cl)c(N)nn3)cc2)C[C@H](C)N1  HepG2 hepatocellular carcinoma cells                 µM             9.64

As a next step, examine the compound that follows.
stdin: I would be grateful if you could share the reported IC50 for C[C@@H](Oc1cc(C(=O)Nc2ccc(C(=O)N3CCN(C)CC3)cc2)nnc1N)c1c(Cl)ccc(F)c1Cl .
stdout: 15.1

====

Test system: Ba/F3 cells expressing EML4-ALK E13;A20 L1196M
assay_name: Cell Titer Blue viability, Ba/F3 EML4-ALK L1196M
Format: cell-based
conditions: read-out: IC50 Ba/F3 EML4-ALK E13;A20 L1196M; 72h
pIC50: −log10 of the molar value.
quantity: pIC50

stdin: So what's the measured pIC50 for this one? C[C@@H]1CN(C(=O)c2ccc(NC(=O)c3cc(O[C@H](C)c4c(Cl)ccc(F)c4Cl)c(N)nn3)cc2)C[C@H](C)N1
stdout: ≥ 7.00
